experiment: in vivo; details: BALB/c nude, mouse, po
experimental_readout: Kp at 336 h

# smiles_notation, Kp at 336 h
data = [
    ("Cc1nc(Nc2ncc(C(=O)Nc3c(C)cccc3Cl)s2)cc(N2CCN(CCO)CC2)n1", "0.06 to 0.12"),
]

Now take the following compound into account.
Challenge: Answer with the recorded Kp at 336 h of `CCN(CC)CCNC(=O)c1c(C)[nH]c(/C=C2\C(=O)Nc3ccc(F)cc32)c1C` only.
Response given: 0.24 to 0.31
